- Tested on: Escherichia coli BW25113
- protocol notes: ≥ marks a high value that may be exact or a test limit, other limits are often not marked, values filed in µg/mL are converted to µM
property label: MIC

Requested field: MIC. Item: CC(C)C[C@H](NC(=O)[C@H](CCCN=C(N)N)NC(=O)[C@@H]1CCCN1C(=O)[C@H](CCCN=C(N)N)NC(=O)[C@@H]1CCCN1C(=O)[C@@H]1CCCN1C(=O)[C@H](CCCN=C(N)N)NC(=O)[C@@H]1CCCN1C(=O)[C@H](CCC(N)=O)NC(=O)[C@@H]1CCCN1C(=O)[C@H](CCCN=C(N)N)NC(=O)[C@H](Cc1ccc(O)cc1)NC(=O)[C@@H](NC(=O)[C@@H]1CCCN1C(=O)[C@H](CCCN=C(N)N)NC(=O)[C@H](CC(N)=O)NC(=O)[C@H](CC(N)=O)NC(=O)CN)C(C)C)C(=O)O [GNNRPVYRPQPRPPRPRL] 0.062 µM

Look up MIC for this compound: CC[C@H](C)[C@H](NC(=O)[C@@H]1CCCN1C(=O)[C@@H]1CCCN1C(=O)[C@H](CCCN=C(N)N)NC(=O)[C@H](Cc1ccccc1)NC(=O)[C@@H](N)CCCN=C(N)N)C(=O)N[C@@H](CCCN=C(N)N)C(=O)N[C@@H](CCCN=C(N)N)C(=O)N1CCC[C@H]1C(=O)N1CCC[C@H]1C(=O)N[C@H](C(=O)N[C@@H](CCCN=C(N)N)C(=O)N1CCC[C@H]1C(=O)N1CCC[C@H]1C(=O)N[C@@H](Cc1ccccc1)C(=O)N[C@@H](Cc1ccc(O)cc1)C(=O)N[C@@H](CCCN=C(N)N)C(=O)O)[C@@H](C)CC [RFRPPIRRPPIRPPFYR] 8 µM

Would you kindly share the measured MIC for CC[C@H](C)[C@H](NC(=O)[C@@H]1CCCN1C(=O)[C@H](CCCN=C(N)N)NC(=O)[C@H](CCCN=C(N)N)NC(=O)[C@H](Cc1c[nH]c2ccccc12)NC(=O)[C@@H](N)CCCN=C(N)N)C(=O)N[C@@H](CCCN=C(N)N)C(=O)N[C@@H](CCCN=C(N)N)C(=O)N1CCC[C@H]1C(=O)N1CCC[C@H]1C(=O)N[C@H](C(=O)N[C@@H](CCCN=C(N)N)C(=O)N1CCC[C@H]1C(=O)N1CCC[C@H]1C(=O)N[C@@H](Cc1ccccc1)C(=O)N[C@@H](Cc1ccc(O)cc1)C(=O)N[C@@H](CCCN=C(N)N)C(=O)O)[C@@H](C)CC [RWRRPIRRPPIRPPFYR] ? 8 µM

====

Please go through the items and note down their MIC.
- Tested on: Pseudomonas aeruginosa Ps4
- protocol notes: ≥ marks a high value that may be exact or a test limit, other limits are often not marked, values filed in µg/mL are converted to µM

I am curious: what MIC value has been reported for CC[C@H](C)[C@H](NC(=O)[C@H](CC(N)=O)NC(=O)[C@H](CCCN=C(N)N)NC(=O)[C@H](CCC(N)=O)NC(=O)[C@H](Cc1c[nH]c2ccccc12)NC(=O)[C@H](Cc1ccccc1)NC(=O)[C@@H](N)CS)C(=O)N[C@@H](CCCN=C(N)N)C(=O)N[C@@H](CCCCN)C(=O)N[C@H](C(=O)N[C@@H](CS)C(=O)N[C@@H](CCCN=C(N)N)C(N)=O)C(C)C ? ≥ 155 µM

Return reported MIC; argument: CC[C@H](C)[C@H](NC(=O)[C@H](CC(N)=O)NC(=O)[C@H](CCCN=C(N)N)NC(=O)[C@H](CCC(N)=O)NC(=O)[C@H](Cc1c[nH]c2ccccc12)NC(=O)[C@@H](N)Cc1ccccc1)C(=O)N[C@@H](CCCN=C(N)N)C(=O)N[C@H](C(=O)N[C@@H](CCCN=C(N)N)C(N)=O)C(C)C ≥ 196 µM

// returns reported MIC for input CC[C@H](C)[C@H](NC(=O)[C@H](CC(N)=O)NC(=O)[C@H](CCCN=C(N)N)NC(=O)[C@@H](NC(=O)[C@H](Cc1c[nH]c2ccccc12)NC(=O)[C@@H](N)Cc1ccccc1)C(C)C)C(=O)N[C@@H](CCCN=C(N)N)C(=O)N[C@@H](CCCCN)C(=O)N[C@H](C(=O)N[C@@H](CCCN=C(N)N)C(N)=O)C(C)C ≥ 250 µM
